procedureSummary: Selectivity index, ratio of CC50 for human MT4 cells to EC50 for antiviral activity against HIV1 RES056 infected in human MT4 cells
Assay type: toxicity, cell-based
reportedConditions: read-out: Ratio CC50/EC50
recordedEndpoint: selectivity ratio

Cc1cc(C#N)cc(C)c1Oc1nc(NC2CCN(CC(=O)N3CCOCC3)CC2)nc2scnc12 = < 1
COc1cc2nc(NC3CCN(CC(=O)N4CCOCC4)CC3)nc(Oc3c(C)cc(C#N)cc3C)c2cc1OC = < 1
Cc1cc(C#N)cc(C)c1Oc1nc(NC2CCN(CCN3CCOCC3)CC2)nc2c1SCC2 = < 1
Cc1cc(C#N)cc(C)c1Oc1nc(NC2CCN(CC(=O)N3CCOCC3)CC2)nc2ccccc12 = < 1
Cc1cc(C#N)cc(C)c1Oc1nc(NC2CCN(CCN3CCOCC3)CC2)nc2c1CSC2 = < 1
Cc1cc(C#N)cc(C)c1Oc1nc(Nc2ccc(C#N)cc2)nc(N)c1Br = > 122
Cc1cn([C@H]2C[C@H](N=[N+]=[N-])[C@@H](CO)O2)c(=O)[nH]c1=O = > 311
Cc1cc(C#N)cc(C)c1Oc1nc(NC2CCN(CCN3CCOCC3)CC2)nc2scnc12 = < 1

// moving on: another record for selectivity ratio
Entry Cc1cc(C#N)cc(C)c1Oc1nc(NC2CCN(CC(=O)N3CCOCC3)CC2)nc2c1CCC2 — recorded selectivity ratio = < 1

====

Some compounds, each annotated with its measured Ratio EC50.
procedureSummary: Resistance index, ratio of EC50 for antiviral activity against HIV1 expressing RT E138K mutant infected in human MT4 cells to EC50 for antiviral activity against HIV1 3B infected in human MT4 cells
Format: functional
Write no unit; give the number alone.

Field: example entries. Status: answers known.
Cc1cc(C#N)cc(C)c1Oc1nc(NC2CCN(CC(=O)N3CCOCC3)CC2)nc2sccc12 = 4.1
Cc1cc(C#N)cc(C)c1Oc1nc(NC2CCN(CC(=O)N3CCOCC3)CC2)nc2ccsc12 = 1.7
Cc1ccnc2c1NC(=O)c1cccnc1N2C1CC1 = 1.2
Cc1cc(C#N)cc(C)c1Oc1nc(NC2CCN(CCN3CCOCC3)CC2)nc2ccsc12 = 5
Cc1cc(C#N)cc(C)c1Oc1nc(NC2CCN(CCN3CCOCC3)CC2)nc2cc(F)ccc12 = 4
Cc1cc(C#N)cc(C)c1Oc1nc(NC2CCN(CC(=O)N3CCOCC3)CC2)nc2c1CSC2 = 4.1

Looking up Cc1cc(C#N)cc(C)c1Oc1nc(NC2CCN(Cc3ccc(S(N)(=O)=O)cc3)CC2)nc2ccsc12 , I see its Ratio EC50 listed as 2

Value of Ratio EC50 reported for the compound Cc1cn([C@H]2C[C@H](N=[N+]=[N-])[C@@H](CO)O2)c(=O)[nH]c1=O is 1.4

response.value for Cc1cc(C#N)cc(C)c1Oc1nc(NC2CCN(CCN3CCOCC3)CC2)nc2sccc12 (field: Ratio EC50) = 9

====

procedureSummary: Selectivity index, ratio of CC50 for human MT4 cells to EC50 for antiviral activity against HIV1 RES056 infected in human MT4 cells
Assay type: toxicity, cell-based
reportedConditions: read-out: Ratio CC50/EC50
Recorded selectivity ratio values for a group of compounds are listed next.

Cc1cc(C#N)cc(C)c1Oc1nc(NC2CCN(CCN3CCOCC3)CC2)nc2c1CCC2 = < 1
Cc1cc(C#N)cc(C)c1Oc1nc(NC2CCN(CCN3CCOCC3)CC2)nc2ccccc12 = < 1

# selectivity ratio (compound: Cc1cc(C#N)cc(C)c1Oc1nc(NC2CCN(CC(=O)N3CCOCC3)CC2)nc2cc(F)ccc12 ) is < 2.51

# compound Cc1cc(C#N)cc(C)c1Oc1nc(NC2CCN(CC(=O)N3CCOCC3)CC2)nc2c1SCC2 ; its selectivity ratio = < 1
